Each recorded value in this set is attributed to paper PMC5500810.

- measurement.target: human EphA4-Fc (R&D Systems) (human, UniProt P54764 20-547)
- Sequence (P54764 20-547): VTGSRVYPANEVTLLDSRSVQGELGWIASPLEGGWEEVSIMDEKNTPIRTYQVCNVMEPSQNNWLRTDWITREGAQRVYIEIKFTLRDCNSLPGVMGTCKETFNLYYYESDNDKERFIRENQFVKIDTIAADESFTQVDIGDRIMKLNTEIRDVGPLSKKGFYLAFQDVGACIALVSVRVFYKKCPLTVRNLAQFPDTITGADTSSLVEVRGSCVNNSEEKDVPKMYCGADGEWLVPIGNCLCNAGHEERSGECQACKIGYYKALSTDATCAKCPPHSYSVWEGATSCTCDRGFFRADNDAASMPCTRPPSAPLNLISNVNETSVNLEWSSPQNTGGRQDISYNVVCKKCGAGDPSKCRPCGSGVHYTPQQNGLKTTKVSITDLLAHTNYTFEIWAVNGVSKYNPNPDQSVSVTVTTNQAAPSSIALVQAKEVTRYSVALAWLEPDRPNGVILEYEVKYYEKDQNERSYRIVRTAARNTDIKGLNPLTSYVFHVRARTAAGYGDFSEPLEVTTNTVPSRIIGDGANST
- test.description: SPR
property.name: Kd (nM)
Could you give me the number in nM? Just the number is fine.

Q: # input binder: Nb 39 (VHH, biotin on primary amines (EZ link NHS biotin) in the Eph receptor selectivity AlphaScreen only) VHH: QVQLQESGGGLVQPGGSLKLSCAASGFTFSTYAMSWVRQAPGKGLEWVSRINSGGGYTWHADSVKGRFTISRDNARNTVYLQMNNLKPEDTAVYYCTNLNTGWRPEYWGQGTQVTVSS ; wanted: its Kd
A: 30.1

Q: Repeat with Nb 53 (VHH, biotin on primary amines (EZ link NHS biotin) in the Eph receptor selectivity AlphaScreen only) VHH: QVQLQESGGGVVQAGGSLRLSCAASGRAFSSYAMGWFRQAPGTKREMIAAVTRAGTTNYANPVKGRFTISRDDAKNMVYLQMNNLKPEDSAVYYCNAISPLWDEYDFWGPGTQVTVSS
A: 22.6

Q: Repeat with Nb 57 (VHH, biotin on primary amines (EZ link NHS biotin) in the Eph receptor selectivity AlphaScreen only) VHH: QVQLQESGGGLVQPGGSLRLSCAASGFTFSSYYMYWVRQAPGKGLEWVSTINTGGGSTNYADSVKGRFIISRDNAKNTVYLQMNSLKPEDTAVYYCNAFAAGWGPDYWGQGTQVTVSS
A: 38.3

Q: Repeat with Nb 60 (VHH, biotin on primary amines (EZ link NHS biotin) in the Eph receptor selectivity AlphaScreen only) VHH: QVQLQESGGGLVQPGGSLRLSCAASGFTFSRYWIYWVRQAPGKQRELVAAITRNGVTNYADSVKGRFTISTDDNKNTVYLQMNSLKSEDTAVYYCNAWGFLLGDIEDYWGQGTQVTVSS
A: 39.6

Q: Repeat with Nb 50 (VHH, biotin on primary amines (EZ link NHS biotin) in the Eph receptor selectivity AlphaScreen only) VHH: QVQLQESGGGLVQAGGSLRLSCAASGRTFNSYAEAWFRQAPGKEREMIAAVTKAGTTNYANPVKGRFTISRDDAKNMVYLQMNNLKPEDSAVYYCNAISPLWDEYDFWGPGTQVTVSS
A: 64.2
